Just for reference, patent US20200206233A1 is where these values come from.

Listed molecules paired with reported IC50
target: IDH1 mutant (R132H) (Homo sapiens, UniProt O75874, R132H); experiment: Mutant IDH1-R132H Fluorescence Assay (Resazurin based); conditions: 10 nM IDH1 R132H, 4 mM α-ketoglutarate, NADPH, 1.5 h at room temperature
Sequence (O75874 whole entry R132H): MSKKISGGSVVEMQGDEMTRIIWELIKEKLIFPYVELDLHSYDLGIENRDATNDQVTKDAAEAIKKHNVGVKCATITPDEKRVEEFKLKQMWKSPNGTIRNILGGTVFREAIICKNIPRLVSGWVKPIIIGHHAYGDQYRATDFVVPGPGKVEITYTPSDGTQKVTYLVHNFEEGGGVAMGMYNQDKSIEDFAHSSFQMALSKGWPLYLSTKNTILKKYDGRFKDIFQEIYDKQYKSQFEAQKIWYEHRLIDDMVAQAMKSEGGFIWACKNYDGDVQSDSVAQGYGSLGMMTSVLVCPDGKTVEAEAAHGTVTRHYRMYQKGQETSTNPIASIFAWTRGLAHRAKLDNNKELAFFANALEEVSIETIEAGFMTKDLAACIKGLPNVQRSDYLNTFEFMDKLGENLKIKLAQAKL
measure: IC50 (nM)

>>> print(df.to_string())
                              smiles_string  unit_annotation  relation_operator  assay_value
0  CC[C@H]1COC(=O)N1c1nc(C)nc(N[C@@H](C)c2cc3cc(Br)ccc3[nH]c2=O)n1               nM                  =          328
1  CC[C@H]1COC(=O)N1c1nc(C)nc(N[C@@H](C)c2ccc(OCc3ccccn3)cc2)n1               nM                  =         3290
2  CC(C)[C@H]1COC(=O)N1c1ncnc(N[C@H](C)c2ccc(Oc3ccccc3)cc2)n1               nM                  >        30000
3  CC[C@H]1COC(=O)N1c1nc(C)nc(N[C@@H](C)c2ccc(Oc3ccc(F)cc3Br)cc2)n1               nM                  =          440
4  CC[C@H]1COC(=O)N1c1nc(C)nc(N[C@H](C)c2ccc(Nc3ccccc3)cc2)n1               nM                  >        30000

====

Catalogue of pIC50 readings, one per entry.
molecular target: IDH1 mutant (R132H) (Homo sapiens, UniProt O75874, R132H); test: Mutant IDH1-R132H Fluorescence Assay (Resazurin based); settings: 10 nM IDH1 R132H, 4 mM α-ketoglutarate, NADPH, 1.5 h at room temperature
pIC50: −log10 of the molar value.
measure: pIC50

In [3]: df
Out[3]:
                              smiles_string  assay_value
0  CC[C@H]1COC(=O)N1c1nc(C)nc(N[C@H](C)c2ccc(CN3CCN(C(C)=O)CC3)cc2)n1       < 4.52
1  Cc1nc(N[C@@H](C)c2ccc(Oc3ccccc3)cc2)nc(N2C(=O)OC[C@@H]2[C@H](C)F)n1         6.64
2  CC[C@H]1COC(=O)N1c1nc(C)nc(N[C@H](C)c2cc3cc(C)ccc3[nH]c2=O)n1       < 4.52
3  CC[C@H]1COC(=O)N1c1nc(C)nc(N[C@H](C)c2ccc(OCc3ccccc3)cc2)n1       < 4.52
4  CC(C)[C@H]1COC(=O)N1c1ncnc(N[C@H](C)c2ccc(Oc3ccccc3)cn2)n1       < 4.52
5  Cc1cc(-c2cnc([C@@H](C)Nc3ncnc(N4C(=O)OC[C@@H]4C(C)C)n3)nc2)ccc1F       < 4.30
6  C[C@@H](Nc1ncnc(N2C(=O)OC[C@@H]2C)n1)c1ccc(Oc2ccccc2)cc1       < 4.52

====

Heads up, these molecules all have IC50 values measured for IDH1-WT (Homo sapiens).
measure: IC50

>>> print(df.to_string())
                               smiles_string  assay_value
 0  CC[C@H]1COC(=O)N1c1nc(C)nc(N[C@@H](C)c2ccc(Oc3ccccc3)cn2)n1      > 50 µM
 1  Cc1nc(N[C@@H](C)c2ccc(Oc3ccccc3)cc2)nc(N2C(=O)OC[C@@H]2[C@H](C)F)n1      > 50 µM
 2  CC[C@@H](Nc1ncnc(N2C(=O)OC[C@@H]2C(C)C)n1)c1ccc(Oc2ccccc2)cc1      > 30 µM
 3  CC[C@H]1COC(=O)N1c1nc(C)nc(N[C@H](C)c2cc3cc(Cl)c(OC(C)C)cc3[nH]c2=O)n1      > 50 µM
 4  Cc1cc([C@H](C)Nc2ncnc(N3C(=O)OC[C@@H]3C(C)C)n2)ncc1-c1ccnc(C(F)(F)F)c1      > 50 µM
 5  CC[C@H]1COC(=O)N1c1nc(C)nc(N[C@@H](C)c2ccc(Oc3ccccc3)c(F)c2)n1      > 50 µM
 6  CC(C)[C@H]1COC(=O)N1c1ncnc(N[C@@H](C)c2cn(-c3ccc(C(F)(F)F)cc3)cn2)n1      > 30 µM
 7  CC[C@H]1COC(=O)N1c1nc(C)nc(N[C@@H](C)c2ccc(Oc3ccccc3)c(C)c2)n1      > 50 µM
 8  CC(C)[C@H]1COC(=O)N1c1ncnc(N[C@@H](C)c2cn(-c3ccc(Cl)cc3)cn2)n1      > 30 µM
 9  CC(C)[C@H]1COC(=O)N1c1ncnc(N[C@@H](C)c2cc3cc(Cl)ccc3[nH]c2=O)n1      > 50 µM
10  CC(C)[C@H]1COC(=O)N1c1ncnc(N[C@@H](C)c2ccc(Oc3ccccc3)cc2)n1      > 30 µM
11  CC(C)[C@H]1COC(=O)N1c1ncnc(N[C@H](C)c2ccc(Cl)c(Cl)c2)n1      > 30 µM
